- test: Aqueous solubility of compound in phosphate buffer at pH 6.8
- Format: physicochemical
property: solubility (µg/mL)
Answers are plain numbers, in µg/mL.

# query: solubility of entry Clc1cc(-c2nnn[nH]2)ccc1-c1ccc(-n2ccnc2)cc1
7

----------
- target_under_test: Alcohol dehydrogenase class-3 (Homo sapiens, UniProt P11766)
- Sequence (P11766 2-374 limits assumed): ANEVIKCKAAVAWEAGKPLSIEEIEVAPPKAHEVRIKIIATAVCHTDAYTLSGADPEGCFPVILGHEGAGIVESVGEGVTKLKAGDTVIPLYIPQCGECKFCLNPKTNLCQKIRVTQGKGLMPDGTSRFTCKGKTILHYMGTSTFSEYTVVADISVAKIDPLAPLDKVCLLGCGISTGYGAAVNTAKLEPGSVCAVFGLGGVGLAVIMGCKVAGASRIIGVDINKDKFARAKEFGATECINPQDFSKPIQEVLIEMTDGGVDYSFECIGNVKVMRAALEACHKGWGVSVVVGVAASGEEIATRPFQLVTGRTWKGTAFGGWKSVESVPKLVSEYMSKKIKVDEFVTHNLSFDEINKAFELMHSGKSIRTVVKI
- test: Inhibition of human GSNOR assessed as reduction in NADH consumption at 10 uM after 3 mins by spectrophotometric analysis relative to control
Answer each item with its documented inhibition.
Answers are plain numbers, in %.

Solved entries (count: 4):
[[record]]
item_smiles = "N#Cc1ccc(-c2ccc(-c3nn[nH]n3)cc2)cc1"
reported_value = 27

[[record]]
item_smiles = "N#Cc1ccc(-c2ccc(-n3ccnc3)cc2)cc1"
reported_value = 10

[[record]]
item_smiles = "Clc1cc(-c2nn[nH]n2)ccc1-c1ccc(-n2cnnn2)cc1"
reported_value = 36

[[record]]
item_smiles = "O=C(O)c1ccc(-c2ccc(O)cc2)cc1"
reported_value = 25


Moving on to the next molecule.
Fill blank: measured inhibition of the molecule NC(=O)c1ccc(-c2ccc(-n3ccnc3)cc2)cc1 is ____.
60

----------
- test: Aqueous solubility of compound in acetate buffer at pH 4.5
- Type: physicochemical
property: solubility (µg/mL)
Answers are plain numbers, in µg/mL.

solubility for Clc1cc(-c2nnn[nH]2)ccc1-c1ccc(-n2ccnc2)cc1 ?
1.1

----------
Kindly supply the reported Cmax values for the records listed here.
- test: Cmax in C57/BL6 mouse at 30 mg/kg, po
- Assay type: ADME, organism-based
- Design: dose 30 mg/kg, route oral
- condition_label: in vivo
Answer format reminder: number followed by unit.

[[record]]
item_smiles = "Cc1cc(-n2ccnc2)cnc1-c1ccc(-c2nnn[nH]2)cc1F"
reported_value = "2560 ng/mL"


Alright, here's another compound for you.
Which Cmax is reported for this compound? Clc1cc(-c2nnn[nH]2)ccc1-c1ccc(-n2ccnc2)cc1
8960 ng/mL

----------
- test: Metabolic stability of human liver microsomes assessed as parent compound remaining at 0.1 uM after 60 mins in presence of NADPH by LC/MS/MS analysis
- Format: ADME, microsome
- condition_label: read-out: Stability
Would you mind telling me the reported remaining at 1 h, 0.1 µM of each entry?
One number for each entry, in %.

Some entries whose results are on file:
[[record]]
item_smiles = "Clc1cc(-n2ccnc2)cnc1-c1ccc(-c2nnn[nH]2)cc1"
measurement_units = "%"
reported_value = 83

[[record]]
item_smiles = "CCc1cc(-n2ccnc2)ccc1-c1ccc(-c2nnn[nH]2)cc1F"
measurement_units = "%"
reported_value = 97

[[record]]
item_smiles = "CCc1cc(-n2ccnc2C)ccc1-c1ccc(-c2nnn[nH]2)cc1"
measurement_units = "%"
reported_value = 5

[[record]]
item_smiles = "Clc1cc(-c2nnn[nH]2)ccc1-c1ccc(-n2ccnc2)cc1"
measurement_units = "%"
reported_value = 100

[[record]]
item_smiles = "Cc1cc(-n2ccnc2)cnc1-c1ccc(-c2nnn[nH]2)cc1"
measurement_units = "%"
reported_value = 94

[[record]]
item_smiles = "Cc1cc(-n2ccnc2)ccc1-c1ccc(C(=O)O)cc1"
measurement_units = "%"
reported_value = 100

[[record]]
item_smiles = "Cc1cc(-n2ccnc2)ccc1-c1ccc(-c2nnn[nH]2)cc1"
measurement_units = "%"
reported_value = 99

[[record]]
item_smiles = "c1cn(-c2ccc(-c3ccc(-c4nn[nH]n4)cc3)cc2)cn1"
measurement_units = "%"
reported_value = 66


Respectfully, I request remaining at 1 h, 0.1 µM for each entry included below.
1. CCc1cc(-n2ccnc2)ccc1-c1ccc(-c2nnn[nH]2)cc1
2. Cc1nccn1-c1ccc(-c2ccc(-c3nnn[nH]3)cc2)cc1

1. 100
2. 63

Entry Cc1cc(-n2ccnc2)cnc1-c1ccc(-c2nnn[nH]2)cc1F : reported remaining at 1 h, 0.1 µM = ?
100

Value source: ChEMBL document CHEMBL4257571
